Examples of compounds with documented Relative MIC follow.
# Tested on: E. coli ATCC 25922 (SEN) and E. coli NCTC13846 (MDR)
# methodDescription: Adaptive laboratory evolution (ALE), relative MIC of evolved lines
# Type: cell-based, Escherichia coli
# conditionDetails: Escherichia coli NCTC 13846 (EC-MDR), evolved line 1
Where a SMILES comes first, the peptide text is derived from it. Bridges are numbered along the chain shown (N, C = ends). [ ]: non-standard residue; d: D form. The star is where a group is joined. X1 = NC[C@@H](CC(=O)*)c1cccc(Cl)c1; Dab = NCC[C@H](N)C(=O)O; Dap = NC[C@H](N)C(=O)O

These solved cases illustrate the format of a correct answer.
The compound listed as CC(C)C[C@@H]1NC(=O)[C@@H](Cc2ccccc2)NC(=O)[C@H](CCN)NC(=O)[C@@H](NC(=O)[C@H](CN)NC(=O)[C@@H](NC(=O)C[C@H](CN)c2cccc(Cl)c2)[C@@H](C)O)CCNC(=O)[C@H]([C@@H](C)O)NC(=O)[C@H](CCN)NC(=O)[C@H](CCN)NC1=O [SPR206] (X1-T[Dap][Dab][Dab][dF]L[Dab][Dab]T; lactam 3-C (inferred); N-terminus assumed) has a reported Relative MIC of 8

The compound listed as CN(C)[C@@H]1C(O)=C(C(N)=O)C(=O)[C@@]2(O)C(O)=C3C(=O)c4c(O)c(NC(=O)CN5CCCC5)cc(F)c4C[C@H]3C[C@@H]12 [Eravacycline] has a reported Relative MIC of 32

***
The compound listed as CNC(C)C1CCC(N)C(OC2C(N)CC(N)C(OC3OCC(C)(O)C(NC)C3O)C2O)O1 (stereo not shown) [Gentamicin] has a reported Relative MIC of 64

The compound listed as C[C@@H](O)[C@H]1C(=O)N2C(C(=O)O)=C(S[C@H]3CC[S@@+]([O-])C3)S[C@H]12 [Sulopenem] has a reported Relative MIC of 512

====

# System: E. coli BW25113-ΔacrB
# methodDescription: AcrAB-TolC efflux deficiency screen, relative MIC
# Format: cell-based, Escherichia coli
# conditionDetails: ΔacrB vs wild-type, replicate 1
Where a SMILES comes first, the peptide text is derived from it. Bridges are numbered along the chain shown (N, C = ends). [ ]: non-standard residue; d: D form. The star is where a group is joined. X1 = NC[C@@H](CC(=O)*)c1cccc(Cl)c1; X2 = CC[C@H](C)CCCCC(=O)*; Dab = NCC[C@H](N)C(=O)O; Dap = NC[C@H](N)C(=O)O
propertyLabel: Relative MIC (log2)
Could you respond with only the numeric value?

The molecule listed as C[C@@H]1CN2c3c(cc4c(N5C(=O)OC[C@@H]5C)noc4c3F)CC3(C(=O)NC(=O)NC3=O)[C@H]2[C@H](C)O1 [Zoliflodacin] has a reported Relative MIC (log2) of -4

The molecule listed as CC(C)c1ccc(Cn2ccc3c4c(N)nc(NC5CC5)nc4ccc32)cc1 [SCH79797] has a reported Relative MIC (log2) of -1

The molecule listed as O=c1ccc2ncc(=O)n3c2n1C[C@H]3CN1CCC(NCc2cc3c(cn2)OCCC3)CC1 [Gepotidacin] has a reported Relative MIC (log2) of -4

***
The molecule listed as CN(C)c1cc(CNCC(C)(C)C)c(O)c2c1C[C@H]1C[C@H]3[C@H](N(C)C)C(O)=C(C(N)=O)C(=O)[C@@]3(O)C(O)=C1C2=O [Omadacycline] has a reported Relative MIC (log2) of -2.34

The molecule listed as Nc1nc(-n2cc(C(=O)O)c(=O)c3cc(F)c(N4CC(O)C4)c(Cl)c32)c(F)cc1F [Delafloxacin] has a reported Relative MIC (log2) of -4

The molecule listed as C[C@@H](O)[C@H]1C(=O)N2C(C(=O)O)=C(S[C@H]3CC[S@@+]([O-])C3)S[C@H]12 [Sulopenem] has a reported Relative MIC (log2) of 0.585

The molecule listed as C[C@H]1c2cccc(O)c2C(=O)C2=C(O)[C@]3(O)C(=O)C(C(N)=O)=C(O)[C@@H](N(C)C)[C@@H]3[C@@H](O)[C@@H]21 [Doxycycline] has a reported Relative MIC (log2) of -2.34

The molecule listed as CC[C@H](C)CCCCC(=O)N[C@@H](CCN)C(=O)N[C@H](C(=O)N[C@@H](CCN)C(=O)N[C@H]1CCNC(=O)[C@H]([C@@H](C)O)NC(=O)[C@H](CCN)NC(=O)[C@H](CCN)NC(=O)[C@H](CC(C)C)NC(=O)[C@@H](Cc2ccccc2)NC(=O)[C@H](CCN)NC1=O)[C@@H](C)O [Polymyxin B] (X2-[Dab]T[Dab][Dab][Dab][dF]L[Dab][Dab]T; lactam 4-C (inferred); N-terminus assumed) has a reported Relative MIC (log2) of 0

The molecule listed as CNC(C)C1CCC(N)C(OC2C(N)CC(N)C(OC3OCC(C)(O)C(NC)C3O)C2O)O1 (stereo not drawn) [Gentamicin] has a reported Relative MIC (log2) of 0

The molecule listed as CC(C)C[C@@H]1NC(=O)[C@@H](Cc2ccccc2)NC(=O)[C@H](CCN)NC(=O)[C@@H](NC(=O)[C@H](CN)NC(=O)[C@@H](NC(=O)C[C@H](CN)c2cccc(Cl)c2)[C@@H](C)O)CCNC(=O)[C@H]([C@@H](C)O)NC(=O)[C@H](CCN)NC(=O)[C@H](CCN)NC1=O [SPR206] (X1-T[Dap][Dab][Dab][dF]L[Dab][Dab]T; lactam 3-C (inferred); N-terminus assumed) has a reported Relative MIC (log2) of 0

The molecule listed as CN(C)[C@@H]1C(O)=C(C(N)=O)C(=O)[C@@]2(O)C(O)=C3C(=O)c4c(O)c(NC(=O)CN5CCCC5)cc(F)c4C[C@H]3C[C@@H]12 [Eravacycline] has a reported Relative MIC (log2) of -2.34

The molecule listed as CN[C@@H]1[C@@H](O[C@H]2O[C@H](CO)[C@@H](N)[C@H](O)[C@H]2O)OC2C[C@@H](N)[C@@H](O[C@H]3[C@H](O)[C@@H](O)[C@H](N)C[C@@H]3N)OC2[C@@H]1O (stereo partly drawn) [Apramycin] has a reported Relative MIC (log2) of 1

====

# System: P. aeruginosa ATCC BAA-3107 (SEN) and P. aeruginosa LESB58 (MDR)
# methodDescription: Adaptive laboratory evolution (ALE), relative MIC of evolved lines
# Format: cell-based, Pseudomonas aeruginosa
# conditionDetails: Pseudomonas aeruginosa ATCC BAA 3107 (PA-SEN), evolved line 4
Where a SMILES comes first, the peptide text is derived from it. Bridges are numbered along the chain shown (N, C = ends). [ ]: non-standard residue; d: D form. The star is where a group is joined. X1 = NC[C@@H](CC(=O)*)c1cccc(Cl)c1; Dab = NCC[C@H](N)C(=O)O; Dap = NC[C@H](N)C(=O)O
Examples of compounds with documented Relative MIC follow.
Could you respond with only the numeric value?

These solved cases illustrate the format of a correct answer.
Case CC(C)C[C@@H]1NC(=O)[C@@H](Cc2ccccc2)NC(=O)[C@H](CCN)NC(=O)[C@@H](NC(=O)[C@H](CN)NC(=O)[C@@H](NC(=O)C[C@H](CN)c2cccc(Cl)c2)[C@@H](C)O)CCNC(=O)[C@H]([C@@H](C)O)NC(=O)[C@H](CCN)NC(=O)[C@H](CCN)NC1=O [SPR206] (X1-T[Dap][Dab][Dab][dF]L[Dab][Dab]T; lactam 3-C (inferred); N-terminus assumed) , P. aeruginosa ATCC BAA-3107 (SEN) and P. aeruginosa LESB58 (MDR), Relative MIC recorded as 16

Case C[C@H]1c2cccc(O)c2C(=O)C2=C(O)[C@]3(O)C(=O)C(C(N)=O)=C(O)[C@@H](N(C)C)[C@@H]3[C@@H](O)[C@@H]21 , P. aeruginosa ATCC BAA-3107 (SEN) and P. aeruginosa LESB58 (MDR), Relative MIC recorded as 64

Case CN(C)[C@@H]1C(O)=C(C(N)=O)C(=O)[C@@]2(O)C(O)=C3C(=O)c4c(O)c(NC(=O)CN5CCCC5)cc(F)c4C[C@H]3C[C@@H]12 , P. aeruginosa ATCC BAA-3107 (SEN) and P. aeruginosa LESB58 (MDR), Relative MIC recorded as 32

// switching to the query compound
Case Nc1nc(-n2cc(C(=O)O)c(=O)c3cc(F)c(N4CC(O)C4)c(Cl)c32)c(F)cc1F , P. aeruginosa ATCC BAA-3107 (SEN) and P. aeruginosa LESB58 (MDR), Relative MIC recorded as 2048

====

# Tested on: E. coli ATCC 25922 (SEN) and E. coli NCTC13846 (MDR)
# methodDescription: Frequency-of-resistance (FoR) assay, relative MIC of mutants
# Assay type: cell-based, Escherichia coli
# conditionDetails: E. coli NCTC 13846 (EC-MDR), evolved line 2, evolved vs ancestor
Where a SMILES comes first, the peptide text is derived from it. Bridges are numbered along the chain shown (N, C = ends). [ ]: non-standard residue; d: D form. The star is where a group is joined. X1 = NC[C@@H](CC(=O)*)c1cccc(Cl)c1; Dab = NCC[C@H](N)C(=O)O; Dap = NC[C@H](N)C(=O)O
propertyLabel: Relative MIC
Could you respond with only the numeric value?

These solved cases illustrate the format of a correct answer.
The compound listed as CN(C)[C@@H]1C(O)=C(C(N)=O)C(=O)[C@@]2(O)C(O)=C3C(=O)c4c(O)c(NC(=O)CN5CCCC5)cc(F)c4C[C@H]3C[C@@H]12 has a reported Relative MIC of 1

The compound listed as CC(C)C[C@@H]1NC(=O)[C@@H](Cc2ccccc2)NC(=O)[C@H](CCN)NC(=O)[C@@H](NC(=O)[C@H](CN)NC(=O)[C@@H](NC(=O)C[C@H](CN)c2cccc(Cl)c2)[C@@H](C)O)CCNC(=O)[C@H]([C@@H](C)O)NC(=O)[C@H](CCN)NC(=O)[C@H](CCN)NC1=O [SPR206] (X1-T[Dap][Dab][Dab][dF]L[Dab][Dab]T; lactam 3-C (inferred); N-terminus assumed) has a reported Relative MIC of 16

The compound listed as O=c1ccc2ncc(=O)n3c2n1C[C@H]3CN1CCC(NCc2cc3c(cn2)OCCC3)CC1 has a reported Relative MIC of 1

The compound listed as CNC(C)C1CCC(N)C(OC2C(N)CC(N)C(OC3OCC(C)(O)C(NC)C3O)C2O)O1 (centres unmarked) has a reported Relative MIC of 4

***
The compound listed as C[C@@H](O)[C@H]1C(=O)N2C(C(=O)O)=C(S[C@H]3CC[S@@+]([O-])C3)S[C@H]12 has a reported Relative MIC of 1

Provenance of the data: paper PMC11845477
